test: Cytotoxicity assay (MTT), MDCK cells; assay type: cell-based, canine; conditions: dog; MDCK cells, 72 h, MTT; read-out: CC50 (50% cytotoxic concentration)
VALUE_KIND: CC50 at 72 h (µM)
Reply numerically in µM, unit not repeated.

# MOLECULE, CC50 at 72 h / µM
records = [
    ("COC1=C(c2ccc(Cl)cc2)C(=O)OC1(C)COS(=O)(=O)Cc1ccccc1 (stereo not drawn)", 365),
]

Now turn to the next molecule.
Query: // CC50 at 72 h lookup, key: `NC(=O)c1ncn([C@@H]2O[C@H](CO)[C@@H](O)[C@H]2O)n1`
Reply: 608
